# EXPERIMENTAL TARGET: αvβ8 (Homo sapiens, UniProt P06756+P26012)
# Construct: expressed in transfected cells; host or cells: K562
# Sequence (P06756 31-889 limits assumed): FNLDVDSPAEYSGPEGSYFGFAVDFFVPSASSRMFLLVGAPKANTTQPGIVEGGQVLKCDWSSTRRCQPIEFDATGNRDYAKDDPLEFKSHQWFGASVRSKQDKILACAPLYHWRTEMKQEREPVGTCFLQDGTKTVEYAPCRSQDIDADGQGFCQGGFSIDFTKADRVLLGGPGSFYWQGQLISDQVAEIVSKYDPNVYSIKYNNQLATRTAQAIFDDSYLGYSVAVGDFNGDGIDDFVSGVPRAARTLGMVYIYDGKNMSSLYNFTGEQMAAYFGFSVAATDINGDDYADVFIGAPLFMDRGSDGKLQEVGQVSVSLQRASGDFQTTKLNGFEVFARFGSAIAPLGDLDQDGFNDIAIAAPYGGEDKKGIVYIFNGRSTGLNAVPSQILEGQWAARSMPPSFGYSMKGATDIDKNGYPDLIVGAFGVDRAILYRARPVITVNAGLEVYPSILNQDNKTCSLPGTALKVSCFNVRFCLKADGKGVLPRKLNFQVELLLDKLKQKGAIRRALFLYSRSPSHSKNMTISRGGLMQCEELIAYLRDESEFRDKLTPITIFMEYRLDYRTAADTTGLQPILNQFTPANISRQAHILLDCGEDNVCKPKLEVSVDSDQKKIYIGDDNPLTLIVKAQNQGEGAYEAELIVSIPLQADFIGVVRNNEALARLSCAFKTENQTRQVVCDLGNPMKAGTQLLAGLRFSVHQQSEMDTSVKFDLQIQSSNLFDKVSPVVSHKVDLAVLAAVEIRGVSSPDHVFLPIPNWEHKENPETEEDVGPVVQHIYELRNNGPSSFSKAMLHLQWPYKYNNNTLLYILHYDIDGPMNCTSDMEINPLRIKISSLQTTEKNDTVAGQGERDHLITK
# Sequence (P06756 891-1048 partner limits assumed): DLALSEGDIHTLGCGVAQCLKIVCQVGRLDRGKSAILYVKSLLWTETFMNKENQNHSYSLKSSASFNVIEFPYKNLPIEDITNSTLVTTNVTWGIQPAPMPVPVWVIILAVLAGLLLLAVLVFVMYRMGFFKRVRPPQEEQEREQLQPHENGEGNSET
# Sequence (P26012 43-769): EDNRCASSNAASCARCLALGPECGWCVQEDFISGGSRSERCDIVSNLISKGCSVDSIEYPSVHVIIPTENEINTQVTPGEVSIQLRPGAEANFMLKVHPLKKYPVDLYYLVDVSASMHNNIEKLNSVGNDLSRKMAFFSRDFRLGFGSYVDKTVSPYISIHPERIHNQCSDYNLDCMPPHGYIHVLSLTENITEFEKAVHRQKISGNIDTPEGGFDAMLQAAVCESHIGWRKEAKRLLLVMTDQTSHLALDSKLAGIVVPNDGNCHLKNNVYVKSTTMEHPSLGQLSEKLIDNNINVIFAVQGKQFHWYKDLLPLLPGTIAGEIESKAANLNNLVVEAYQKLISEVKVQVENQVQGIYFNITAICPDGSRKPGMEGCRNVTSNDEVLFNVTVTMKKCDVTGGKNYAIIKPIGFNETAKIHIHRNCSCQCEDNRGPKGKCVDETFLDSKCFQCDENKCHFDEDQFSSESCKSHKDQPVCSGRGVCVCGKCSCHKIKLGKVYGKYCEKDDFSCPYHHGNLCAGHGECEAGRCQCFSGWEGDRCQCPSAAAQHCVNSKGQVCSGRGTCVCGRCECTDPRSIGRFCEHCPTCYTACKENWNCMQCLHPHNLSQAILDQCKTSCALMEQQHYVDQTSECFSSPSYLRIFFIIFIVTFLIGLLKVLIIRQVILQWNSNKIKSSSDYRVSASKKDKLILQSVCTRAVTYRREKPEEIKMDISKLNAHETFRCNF
# EXPERIMENTAL DETAILS: Cell Adhesion Assay K562-αvβ8 (LAP-b1)
# Format: cell-based
# EXPERIMENTAL PARAMETERS: K562-αvβ8 cells, ligand LAP-b1, 2 mM MgCl2; read-out: mean affinity (pIC50) αvβ8 (converted)
READOUT TYPE: IC50 (nM)

a = Cc1cc(CO)nn1-c1cccc(C(CC(=O)O)CN2CC[C@@H](CCc3ccc4c(n3)NCCC4)C2)c1 (single isomer, unassigned)
b = Cc1cc(CF)nn1-c1cccc(C(CC(=O)O)CN2CC[C@@H](CCc3ccc4c(n3)NCCC4)C2)c1 (stereo partly shown)
c = O=C(O)CC(CN1CC[C@@H](CCc2ccc3c(n2)NCCC3)C1)c1cccc(-n2ccc(C(F)(F)F)n2)c1 (stereo partly shown)
[in] Rank items: key IC50, increasing. Response field: labels, in requested order.
[out] a, b, c
(a: 10 nM, b: 15.8 nM, c: 25.1 nM)
